Form field: pKd (one value per entry).
target: Vfr (Pseudomonas aeruginosa); construct: purified protein; assay: biochemical; format: binding
Sequence (P55222 whole entry): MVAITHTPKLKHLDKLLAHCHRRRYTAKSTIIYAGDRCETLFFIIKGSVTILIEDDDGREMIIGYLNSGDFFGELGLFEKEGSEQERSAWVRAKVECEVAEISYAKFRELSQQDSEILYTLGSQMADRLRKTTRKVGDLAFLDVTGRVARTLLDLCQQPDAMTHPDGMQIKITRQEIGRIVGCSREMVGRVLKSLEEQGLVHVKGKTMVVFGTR
pKd: −log10 of the molar value.
Parameter: pKd

1) C[C@]12CC[C@@H]3c4ccc(O)cc4CC[C@H]3[C@@H]1C[C@@H](O)[C@@H]2O : 3.11 to 3.12
2) C[C@]12CC[C@H]3[C@@H](CCC4=CC(=O)CC[C@@]43C)[C@@H]1CC[C@@H]2O : 2.74 to 2.77
